tested on: L. donovani-infected THP-1 macrophages, intracellular amastigote imaging; experiment: antileishmanial activity in infected THP-1 macrophages – imaging, THP-1 host macrophages, host toxicity (AID 1159564); conditions: measured here: THP-1 host cell toxicity
pIC50: −log10 of the molar value.
VALUE_KIND: pIC50

For record "CCN(C)Cc1ccc(N2CCC(NS(=O)(=O)c3ccc4c(c3)CCO4)CC2)nc1" the listed pIC50 is < 4.30

For record O=C(NC1C(=O)N(c2ccccc2)C1c1cccnc1)c1ccc(Cl)s1 (stereo not given) the listed pIC50 is < 4.30

# pIC50 (compound: "CCn1nccc1CN(C)C(=O)C=Cc1ccc(Cl)cc1" ) is < 4.30

Lab note: "Cc1ccc(NC(=O)c2ccnc(N3CCCC3)c2)cc1-c1cc(C(N)=O)ccc1C" gave pIC50 of 4.49

# pIC50 of "O=C(Nc1ccc(Br)c(Cl)c1)Nc1ccc2c(c1)OCO2" = < 4.30

The reported value for "COc1ccc(S(=O)(=O)NC(C)C)cc1Nc1ncc(-c2cccc(F)c2)cn1" in terms of pIC50 is < 4.30

In plain terms, Cc1[nH]nc2c1C(c1ccc(OCc3ccccc3F)cc1)SCC(=O)N2 (stereo not given) has a documented pIC50 of < 4.30

Just so you know, measured pIC50 for O=C(NC(c1ccc(Cl)cc1)c1cnccn1)C1CCN(C(=O)Nc2cccc(C(F)(F)F)c2)CC1 (stereo not given) came out at 4.40

The reported pIC50 of the compound "CN(C)CCN(C)Cc1ccc(Cl)cc1NS(=O)(=O)c1ccc(Cl)c(Cl)c1" was 4.49

Reported pIC50 of Cc1ccc(C)c(CN2C(=O)NC3(CCc4ccccc43)C2=O)c1 (stereo not given) : < 4.30
